All values here come from patent US20230065740A1.

Biological target: CDK2-CYCLINA (Homo sapiens)
Construct: purchased Millipore
Experiment: Microfluidic LabChip kinase inhibition assay, CDK2-CyclinA
Format: biochemical
Conditions: Table 3b; 50 μM ATP
property: pIC50
Give bare numbers, as −log10 of the molar value.

Sample answers from the record:
> print(dat)
                                   molecule  endpoint.result
1  CN(C)[C@@H]1CCN(C(=O)c2ccc(Nc3ncc4c(n3)N(C3CCCC3)C3(CCNC3=O)C4)cc2)C1 (stereo partly shown)             5.71
2  CC(C)c1ccc(Nc2ncc3c(n2)N(C2CCCC2)C2(CCNC2=O)C3)cc1 (stereo not shown)             5.30
3  CN1CCN(c2ccc(Nc3ncc4c(n3)N(C3CCCC3)C3(CC(=O)NC3=O)C4)cc2)CC1 (single isomer, unassigned) [Compound C136]             5.81
4  CN1CCN(c2ccc(Nc3ncc4c(n3)N(C3CCCC3)C3(CC(=O)NC3=O)C4)cc2)CC1 (single isomer, unassigned) [Compound C137]             5.48
5  CC1CN(c2ccc(Nc3ncc4c(n3)N(C3CCCC3)C3(CC(=O)NC3=O)C4)cc2)CC(C)N1 (stereo not shown)             5.64
6  CN(C)[C@H]1CCN(C(=O)c2ccc(Nc3ncc4c(n3)N(C3CCCC3)C3(CCNC3=O)C4)cc2)C1 (stereo partly shown)             6.17

Batch request: pIC50 for each of the following molecules.
1. CC(C)N1CCN(c2ccc(Nc3ncc4c(n3)N(C3CCCC3)C3(CC(=O)NC3=O)C4)cc2)CC1 (stereo not shown)
2. O=C1NCCC12Cc1cnc(Nc3ccc(N4CCC(N5CCOCC5)CC4)c(F)c3)nc1N2C1CCCC1 (stereo not shown)
3. CN1CCN(c2ccc(Nc3ncc4c(n3)N(C3CCCC3)C3(CCNC3=O)C4)cc2F)CC1 (single isomer, unassigned)
4. CN1CCN(c2ccc(Nc3ncc4c(n3)N(C3CCCC3)C3(CC(=O)NC3=O)C4)cc2F)CC1 (stereo not shown)

1: 5.64; 2: 5.02; 3: 5.68; 4: 6.61

Answer for every listed entry: what is its pIC50? The entries follow.
1. CC1CN(c2ccc(Nc3ncc4c(n3)N(C3CCCC3)C3(CCNC3=O)C4)cc2)CC(C)N1 (stereo not shown)
2. CC(C)N1CCN(c2ccc(Nc3ncc4c(n3)N(C3CCCC3)C3(CCNC3=O)C4)cc2F)CC1 (stereo not shown)

5.02
5.31
